# SYSTEM NAME: T1, recombinant human CD40-Fc (human, UniProt P25942 21-193)
# T1 construct: also called rh-CD40-Fc; CD40-hFc
# T1 sequence (P25942 21-193): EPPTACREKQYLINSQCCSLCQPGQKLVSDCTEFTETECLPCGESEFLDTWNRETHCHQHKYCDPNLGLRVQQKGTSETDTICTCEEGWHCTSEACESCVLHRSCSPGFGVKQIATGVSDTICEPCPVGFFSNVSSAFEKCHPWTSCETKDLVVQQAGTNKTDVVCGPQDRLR
# ASSAY NOTES: ELISA, CD40-Fc coated, VHH at 8 nM
METRIC NAME: OD450

BINDER	OD450
pgDD40-SZ-7 (VHH, not shown: small tags and cut ends) VHH: QVQLVESGGALAQPGGSLRLSCEASATVRSVNAMAWYRQGPGKPRELVANITSGDTTYYADSVKGRFTLSREGARNTVYLQMNSLKPEDTAVYQCNIHYTSTGGIRRDYWGRGTQVTVSS	1.6

P. pgDD40-SZ-5 (VHH, not shown: small tags and cut ends) VHH: QVQLVESGGALAQPGGSLRLSCEASENVRSVNAMAWYRQGPGKPRELVANITSGDATYYADSVKGRFTLSREGARNTVYLQMNSLKPEDTAVYQCNVHYTSWGGIRRDYWGRGTQVTVSS
Q. pgDD40-HZ-47 (VHH, not shown: small tags and cut ends) VHH: QVQLVESGGGLVQPGGSMRLSCSASGFSISVYWMSWVRRAPGKGLEWVSNLGADGVTAQYSDSVKGRFTIARDTAKNTLYLQMNSLKPEDTAVYYCNAMTGMNPAEEEAYWGQGTQVTVSS
Lookup: Please tell me which of the two, P or Q , has the higher reported OD450 value. Your answer should be the label attached to the chosen record.
Found: P

A. pgDD40-SZ-1 (VHH, not shown: small tags and cut ends) VHH: QVQLVESGGALAQPGGSLRLSCEASTNVRSVNAMAWYRQGPGKPRELVANITSDDATYYADSVKGRFTLSREGARNTVYLQMNSLKPEDTAVYQCNVHYTSWGGIRRDYWGRGTQVTVSS
B. pgDD40-HZ-15 (VHH, not shown: small tags and cut ends) VHH: EVQLVESGGGLVQAGGSLRLSCAASGFTFDDYAIGWFRQAPGKEREGVSCLSKNVGNTYYADSVKGRFTISSDNAKNTVYLQMNSLKPEDTAVYYCAKGSGYGCYDFPRYAVWGQGTQVTVSS
C. pgDD40-SZ-12 (VHH, not shown: small tags and cut ends) VHH: EVQLVESGGGLVQPGGSLKLSCAASGFAFSRYTMSWVRQAPGKGLEWVSGIDSGGGRTSYINSVKGRFTISRDNAKNTLYLQMNSLKPEDTAVYHCAQGGDSGSYYRTSWGQGTQVTVSS
Lookup: Rank descending by OD450. Give the order by naming the labels one after another as requested.
Found: A, C, B
(A: 1.66, C: 0.09, B: 0.061)

I. pgDD40-SZ-2 (VHH, not shown: small tags and cut ends) VHH: EVQLVESGGALAQPGGSLRLSCEASATIRSVNAMAWYRQGPGKPREMVANITSGDTTYYADSVKGRFTLSREGARNTVYLQMNSLKPEDTAVYQCNIHYTSTGGIRRDYWGRGTQVTVSS
II. pgDD40-HZ-28 (VHH, not shown: small tags and cut ends) VHH: EVQLVESGGGLVQAGGSLRLSCVASERTFTPVRMGWFRQAPGKEREIVAAITWSDGSTYYADAVKGRFTISRDNALNAVYLQIDSLKPEDTAVYVCAASTSPYSTHLQFRYWGQGTQVTVSS
Lookup: Pick one, I or II : lowest reported OD450. Your answer should be the label attached to the chosen record.
Found: II
